- TARGET_ENTITY: 3-oxo-5-alpha-steroid 4-dehydrogenase 2 (Homo sapiens) (UniProt P31213)
- Sequence (P31213 whole entry): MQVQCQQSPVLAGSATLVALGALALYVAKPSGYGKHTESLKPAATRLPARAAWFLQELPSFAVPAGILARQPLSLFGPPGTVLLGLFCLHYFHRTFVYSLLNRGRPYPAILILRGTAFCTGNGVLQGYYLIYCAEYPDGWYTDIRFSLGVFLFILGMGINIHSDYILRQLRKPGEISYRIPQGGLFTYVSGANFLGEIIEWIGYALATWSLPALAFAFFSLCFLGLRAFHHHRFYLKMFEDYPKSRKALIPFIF
- TEST_METHOD_NOTES: Inhibition of human type-2 5-alpha reductase expressed in HEK293 cells using [3H]-androstenedione as substrate at 10 uM after 30 mins by HPLC analysis
- Format: cell-based
Entries and their inhibition
REPORTED_METRIC: inhibition (%)

> print(dat)
                                    compound  reported.metric  unit.annotation  reported.result
 1  C[C@]12CCC(C#N)=CC1=CC[C@@H]1[C@@H]2CC[C@]2(C)NC(=O)CC[C@@H]12       inhibition                %              9.9
 2  C=CCN1C(=O)CC[C@H]2[C@@H]3CC=C4C=C(C(=O)O)CC[C@]4(C)[C@H]3CC[C@@]21C       inhibition                %              100
 3  C[C@]12CCC(Br)=CC1=CC[C@@H]1[C@@H]2CC[C@]2(C)NC(=O)CC[C@@H]12       inhibition                %             45.6
 4  CC(=O)N1C(=O)CC[C@H]2[C@@H]3CC=C4C=C(C#N)CC[C@]4(C)[C@H]3CC[C@@]21C       inhibition                %             23.2
 5  C[C@]12CCC(C(=O)O)=CC1=CC[C@@H]1[C@@H]2CC[C@]2(C)NC(=O)CC[C@@H]12       inhibition                %             62.9
 6  C=CCN1C(=O)CC[C@H]2[C@@H]3CC=C4C=C(C#N)CC[C@]4(C)[C@H]3CC[C@@]21C       inhibition                %              3.3
 7  C[C@]12CCC(C#N)=CC1=CC[C@@H]1[C@@H]2CC[C@@]2(C)[C@H]1CCC(=O)N2Cc1ccccc1       inhibition                %             34.7
 8  CN1C(=O)CC[C@H]2[C@@H]3CC=C4C=C(C#N)CC[C@]4(C)[C@H]3CC[C@@]21C       inhibition                %             13.5
 9  C[C@]12CC[C@H]3[C@@H](CC=C4C=C(C(=O)O)CC[C@@H]43)[C@@H]1CCC2=O       inhibition                %              100
10  CCN1C(=O)CC[C@H]2[C@@H]3CC=C4C=C(C(=O)O)CC[C@]4(C)[C@H]3CC[C@@]21C       inhibition                %              100
11  CCN1C(=O)CC[C@H]2[C@@H]3CC=C4C=C(C#N)CC[C@]4(C)[C@H]3CC[C@@]21C       inhibition                %             48.9
12  CN1C(=O)CC[C@H]2[C@@H]3CC=C4C=C(C(=O)O)CC[C@]4(C)[C@H]3CC[C@@]21C       inhibition                %              100
13  C[C@]12CCC(C#N)=CC1=CC[C@@H]1[C@@H]2CC[C@@]2(C)[C@H]1CCC(=O)N2CCC#N       inhibition                %              9.9
14  C[C@]12CC[C@H]3[C@@H](CC=C4C=C(C#N)CC[C@@H]43)[C@@H]1CCC2=O       inhibition                %              1.2
15  C[C@]12CCC(C#N)=CC1=CC[C@@H]1[C@@H]2CC[C@@]2(C)[C@H]1CCC(=O)N2C(=O)c1ccccc1       inhibition                %             11.4
16  CCOC(=O)CCN1C(=O)CC[C@H]2[C@@H]3CC=C4C=C(C(=O)O)CC[C@]4(C)[C@H]3CC[C@@]21C       inhibition                %              100

Source of measurements: ChEMBL document CHEMBL2169861
